# assay-protocol: ABTS radical cation scavenging (decolorization) assay
# Format: biochemical
# test-parameters: mean ± SEM, n = 3; 1 h incubation; relative to Trolox
measured-attribute: ABTS TEAC (Trolox equivalent antioxidant capacity)

Examples with answers:
mol-smiles	observed-value
O=C1NN=C(C(F)(F)C(F)F)/C1=N/O	0.15 ± 0.007 (n.d.) TEAC
O=C1/C(=N\O)C(C(F)(F)C(F)(F)F)=NN1c1ccccc1	0.03 ± 0.002 (n.d.) TEAC
O=C1NN=C(C(F)(F)C(F)(F)F)/C1=N/O	0.13 ± 0.04 (n.d.) TEAC

Note: attention shifts to another entry.
Endpoint output: ABTS TEAC (Trolox equivalent antioxidant capacity) of CC1=NNC(=O)/C1=N\O . Value?
0.2 ± 0.03 (n.d.) TEAC

Data origin: paper PMC9699072
